experiment: in vivo; set-up: species or system mice; details: male, NOD.Cg-Rag1tm1Mom Il2rgtm1Wjl/SzJ (NRG), mouse, iv, total radioactivity, Biodistribution: Liver
Where a SMILES comes first, the peptide text is derived from it. Bridges are numbered along the chain shown (N, C = ends). Side-chain parts run from the residue outwards. [ ]: non-standard residue; d: D form. The star is where a group is joined. X4 = O=C(O)CN1CCN(CC(=O)O)CCN(CC(=O)N[C@@H](CS(=O)(=O)O)C(=O)NCCCC[C@H](NC(=O)CNC(=O)CCCc2ccc(Cl)cc2)C(=O)*)CCN(CC(=O)O)CC1; X3 = O=C(O)CN1CCN(CC(=O)O)CCN(CC(=O)N[C@@H](CS(=O)(=O)O)C(=O)N[C@@H](CCCCNC(=O)CCCc2ccc(Br)cc2)C(=O)*)CCN(CC(=O)O)CC1; X5 = O=C(O)CN1CCN(CC(=O)O)CCN(CC(=O)N[C@@H](CS(=O)(=O)O)C(=O)N[C@@H](CCCCNC(=O)CCCc2ccc(Cl)cc2)C(=O)*)CCN(CC(=O)O)CC1; X1 = O=C(O)CN1CCN(CC(=O)O)CCN(CC(=O)N[C@@H](CS(=O)(=O)O)C(=O)N[C@@H](CCCCNC(=O)CCCc2ccc(I)cc2)C(=O)*)CCN(CC(=O)O)CC1; X6 = COc1ccc(CCCC(=O)NCCCC[C@H](NC(=O)[C@H](CS(=O)(=O)O)NC(=O)CN2CCN(CC(=O)O)CCN(CC(=O)O)CCN(CC(=O)O)CC2)C(=O)*)cc1; X7 = COc1ccc(CCCC(=O)NCCCC[C@H](NC(=O)CN2CCN(CC(=O)O)CCN(CC(=O)O)CCN(CC(=O)O)CC2)C(=O)*)cc1; DOTA = O=C(O)CN1CCN(CC(=O)O)CCN(CC(=O)*)CCN(CC(=O)O)CC1; NMeLys(iPr) = CN[C@@H](CCCCNC(C)C)C(=O)O; 2Nal = N[C@@H](Cc1ccc2ccccc2c1)C(=O)O; Lys(iPr) = CC(C)NCCCC[C@H](N)C(=O)O; Cya = N[C@@H](CS(=O)(=O)O)C(=O)O
parameter measured: tissue uptake at 1 h (%ID/g)
The reply should contain only the number, in %ID/g.

For orientation, consider the following solved cases.
CC(C)NCCCC[C@H](NC(=O)[C@H]1CCC(=O)N[C@@H](CCCCNC(=O)[C@H](CCCCNC(=O)CCCc2ccc(Br)cc2)NC(=O)[C@H](CS(=O)(=O)O)NC(=O)CN2CCN(CC(=O)O)CCN(CC(=O)O)CCN(CC(=O)O)CC2)C(=O)N[C@@H](Cc2ccc(O)cc2)C(=O)N[C@@H](CCCCNC(C)C)C(=O)N[C@H](CCCNC(=N)N)C(=O)N[C@@H](Cc2ccc3ccccc3c2)C(=O)N[C@H](C)C(=O)N1)C(N)=O [[^177Lu]Lu-BL34L20, metal not drawn] (K(X3)Y[Lys(iPr)][dR][2Nal][dA][dE][Lys(iPr)]-NH2; lactam N-7): 2.8
COc1ccc(CCCC(=O)NCCCC[C@H](NC(=O)[C@H](CS(=O)(=O)O)NC(=O)CN2CCN(CC(=O)O)CCN(CC(=O)O)CCN(CC(=O)O)CC2)C(=O)NCCCC[C@@H]2NC(=O)CC[C@H](C(=O)N[C@@H](CCCCNC(C)C)C(N)=O)NC(=O)[C@@H](C)NC(=O)[C@H](Cc3ccc4ccccc4c3)NC(=O)[C@@H](CCCNC(=N)N)NC(=O)[C@H](CCCCNC(C)C)NC(=O)[C@H](Cc3ccc(O)cc3)NC2=O)cc1 [[^68Ga]Ga-BL34L7, metal not drawn] (K(X6)Y[Lys(iPr)][dR][2Nal][dA][dE][Lys(iPr)]-NH2; lactam N-7): 1.24
CC(C)NCCCC[C@H](NC(=O)[C@H]1CCC(=O)N[C@@H](CCCCNC(=O)[C@H](CCCCNC(=O)[C@H](CS(=O)(=O)O)NC(=O)CN2CCN(CC(=O)O)CCN(CC(=O)O)CCN(CC(=O)O)CC2)NC(=O)CNC(=O)CCCc2ccc(Cl)cc2)C(=O)N[C@@H](Cc2ccc(O)cc2)C(=O)N[C@@H](CCCCNC(C)C)C(=O)N[C@H](CCCNC(=N)N)C(=O)N[C@@H](Cc2ccc3ccccc3c2)C(=O)N[C@H](C)C(=O)N1)C(N)=O [[68Ga]Ga-BL34T1, metal not drawn] (K(X4)Y[Lys(iPr)][dR][2Nal][dA][dE][Lys(iPr)]-NH2; lactam N-7): 2.9
CC(C)NCCCC[C@H](NC(=O)[C@H]1CCC(=O)N[C@@H](CCCCNC(=O)[C@H](CCCCNC(=O)CCCc2ccc(Cl)cc2)NC(=O)[C@H](CS(=O)(=O)O)NC(=O)CN2CCN(CC(=O)O)CCN(CC(=O)O)CCN(CC(=O)O)CC2)C(=O)N[C@@H](Cc2ccc(O)cc2)C(=O)N[C@@H](CCCCNC(C)C)C(=O)N[C@H](CCCNC(=N)N)C(=O)N[C@@H](Cc2ccc3ccccc3c2)C(=O)N[C@H](C)C(=O)N1)C(N)=O [[^68Ga]Ga-BL34L16, metal not drawn] (K(X5)Y[Lys(iPr)][dR][2Nal][dA][dE][Lys(iPr)]-NH2; lactam N-7): 2.61
COc1ccc(CCCC(=O)NCCCC[C@H](NC(=O)CN2CCN(CC(=O)O)CCN(CC(=O)O)CCN(CC(=O)O)CC2)C(=O)N[C@@H](CS(=O)(=O)O)C(=O)NCCCC[C@@H]2NC(=O)CC[C@H](C(=O)N[C@@H](CCCCNC(C)C)C(N)=O)NC(=O)[C@@H](C)NC(=O)[C@H](Cc3ccc4ccccc4c3)NC(=O)[C@@H](CCCNC(=N)N)NC(=O)[C@H](CCCCNC(C)C)NC(=O)[C@H](Cc3ccc(O)cc3)NC2=O)cc1 [[68Ga]Ga-BL34L6, metal not drawn] (K([Cya-X7])Y[Lys(iPr)][dR][2Nal][dA][dE][Lys(iPr)]-NH2; lactam N-7): 1.6
CC(C)NCCCC[C@H](NC(=O)[C@H]1CCC(=O)N[C@@H](CCCCNC(=O)[C@H](CS(=O)(=O)O)NC(=O)CN2CCN(CC(=O)O)CCN(CC(=O)O)CCN(CC(=O)O)CC2)C(=O)N[C@@H](Cc2ccc(O)cc2)C(=O)N(C)[C@@H](CCCCNC(C)C)C(=O)N[C@H](CCCNC(=N)N)C(=O)N[C@@H](Cc2ccc3ccccc3c2)C(=O)N[C@H](C)C(=O)N1)C(N)=O [[^68Ga]Ga-BL34N1, metal not drawn] (K([Cya-DOTA])Y[NMeLys(iPr)][dR][2Nal][dA][dE][Lys(iPr)]-NH2; lactam N-7): 0.71
CC(C)NCCCC[C@H](NC(=O)[C@@H]1CCSc2c3cccc([N+](=O)[O-])c3cn2[C@@H](CCCCNC(=O)[C@H](CS(=O)(=O)O)NC(=O)CN2CCN(CC(=O)O)CCN(CC(=O)O)CCN(CC(=O)O)CC2)C(=O)CC(Cc2ccc(O)cc2)C(=O)N[C@@H](CCCCNC(C)C)C(=O)N[C@H](CCCNC(=N)N)C(=O)N[C@@H](Cc2ccc3ccccc3c2)C(=O)N[C@H](C)C(=O)N1)C(N)=O (some centres unmarked) [[^68Ga]Ga-3NOPA-BL34L2, metal not drawn]: 12.5

Then there is this compound:
Task item: For the compound shown here, CC(C)NCCCC[C@H](NC(=O)[C@H]1CCC(=O)N[C@@H](CCCCNC(=O)[C@H](CCCCNC(=O)CCCc2ccc(I)cc2)NC(=O)[C@H](CS(=O)(=O)O)NC(=O)CN2CCN(CC(=O)O)CCN(CC(=O)O)CCN(CC(=O)O)CC2)C(=O)N[C@@H](Cc2ccc(O)cc2)C(=O)N[C@@H](CCCCNC(C)C)C(=O)N[C@H](CCCNC(=N)N)C(=O)N[C@@H](Cc2ccc3ccccc3c2)C(=O)N[C@H](C)C(=O)N1)C(N)=O [[^68Ga]Ga-BL34L11, metal not drawn] (K(X1)Y[Lys(iPr)][dR][2Nal][dA][dE][Lys(iPr)]-NH2; lactam N-7) , give the reported tissue uptake at 1 h.
Reply: 3.7

###

experiment: in vivo; design: species or system mice; details: male, NOD.Cg-Rag1tm1Mom Il2rgtm1Wjl/SzJ (NRG), mouse, iv, total radioactivity, Biodistribution: Blood
Where a SMILES comes first, the peptide text is derived from it. Bridges are numbered along the chain shown (N, C = ends). [ ]: non-standard residue; d: D form. The star is where a group is joined. X1 = O=C(O)CN1CCN(CC(=O)O)CCN(CC(=O)N[C@@H](CS(=O)(=O)O)C(=O)N[C@@H](CCCCNC(=O)CCCc2ccc(I)cc2)C(=O)*)CCN(CC(=O)O)CC1; 2Nal = N[C@@H](Cc1ccc2ccccc2c1)C(=O)O; Lys(iPr) = CC(C)NCCCC[C@H](N)C(=O)O
parameter measured: tissue uptake at 1 h (%ID/g)
The reply should contain only the number, in %ID/g.

Task item: For the compound shown here, CC(C)NCCCC[C@H](NC(=O)[C@H]1CCC(=O)N[C@@H](CCCCNC(=O)[C@H](CCCCNC(=O)CCCc2ccc(I)cc2)NC(=O)[C@H](CS(=O)(=O)O)NC(=O)CN2CCN(CC(=O)O)CCN(CC(=O)O)CCN(CC(=O)O)CC2)C(=O)N[C@@H](Cc2ccc(O)cc2)C(=O)N[C@@H](CCCCNC(C)C)C(=O)N[C@H](CCCNC(=N)N)C(=O)N[C@@H](Cc2ccc3ccccc3c2)C(=O)N[C@H](C)C(=O)N1)C(N)=O [[^68Ga]Ga-BL34L11, metal not drawn] (K(X1)Y[Lys(iPr)][dR][2Nal][dA][dE][Lys(iPr)]-NH2; lactam N-7) , give the reported tissue uptake at 1 h.
Reply: 18.7
